Answer each item with its documented Population Pyknosed Nuclei (%).
Test system: HEK-293T
Experiment: Multiplex assay against HEK293T
Type: toxicity, cell-based
Settings: human, 48 h, 10 µM, compound concentration 10 uM, replicate 2
# include the unit after the value

Challenge: Bench note: what Population Pyknosed Nuclei (%) did OC1(c2ccc(Cl)cc2)CCN(Cc2c[nH]c3ccccc23)CC1 show?
Response given: 60%

Challenge: What about c1cn2cc(-c3ccc4cn[nH]c4c3)nc(Nc3ccc(N4CCOCC4)cc3)c2n1 [ENTOSPLETINIB] ?
Response given: 27%

Challenge: Check NC(=O)Nc1cc(-c2cccc(F)c2)sc1C(=O)N[C@H]1CCCNC1 [AZD-7762] too.
Response given: 74%

Challenge: Do the same for COc1cc2nccc(Oc3ccc(NC(=O)Nc4cc(C)on4)c(Cl)c3)c2cc1OC.O please
Response given: 23%

Challenge: And then C[C@@H](NCCCc1cccc(C(F)(F)F)c1)c1cccc2ccccc12.Cl [CINACALCET HYDROCHLORIDE] , what is it?
Response given: 75%

Challenge: Can you check COc1ncc(-c2ccc3nccc(-c4ccnnc4)c3c2)cc1NS(=O)(=O)c1ccc(F)cc1F [OMIPALISIB] next?
Response given: 54%

Challenge: Now this one: CCn1c(=O)c(-c2ccc(Cl)cc2Cl)cc2cnc(Nc3ccc(N4CCNCC4)c(F)c3)nc21
Response given: 28%

Challenge: Try CN1CCC[C@@H]1CCO[C@](C)(c1ccccc1)c1ccc(Cl)cc1.O=C(O)/C=C/C(=O)O [CLEMASTINE FUMARATE] next.
Response given: 69%

Challenge: Now consider CN(C)C(=O)N[C@H]1CC[C@H](CCN2CCN(c3cccc(Cl)c3Cl)CC2)CC1.Cl [CARIPRAZINE HYDROCHLORIDE] .
Response given: 41%

Challenge: How about this compound: CNc1nc(NCc2ccc(NS(C)(=O)=O)cc2Cl)cc(-c2ccccn2)n1
Response given: 67%

Challenge: # repeat for Cl.N#Cc1ccc2[nH]cc(CCCCN3CCN(c4ccc5oc(C(N)=O)cc5c4)CC3)c2c1 [VILAZODONE HYDROCHLORIDE]
Response given: 73%

Challenge: Likewise for Cc1[nH]c(/C=C2\C(=O)Nc3ccc(S(=O)(=O)N(C)c4cccc(Cl)c4)cc32)c(C)c1C(=O)N1CCN(C)CC1 ?
Response given: 41%

Challenge: Repeat for the following compound: Cc1nc(-c2ccc(-c3ccc(C(=O)N4CCc5cc6c(cc54)C4(CCN(C)CC4)CO6)cc3)c(C)c2)no1 [SB-224289]
Response given: 66%

Challenge: Same for CN1CCN(c2ccc(OC(F)(F)F)c(Nc3ncc4c(n3)-c3c(c(C(N)=O)nn3CCO)CC4)c2)CC1 [ONVANSERTIB]
Response given: 51%

Challenge: Could you do the same for CC(C)NCC(O)COc1ccc(CCOCC2CC2)cc1.Cl (stereo unspecified) [BETAXOLOL HYDROCHLORIDE] , please?
Response given: 23%

Challenge: Please answer likewise for CN1CCN(CCOc2cc(OC3CCOCC3)c3c(Nc4c(Cl)ccc5c4OCO5)ncnc3c2)CC1 [SARACATINIB]
Response given: 52%

----------
Exercise: for every item that follows, state its recorded Population Membrane Permeable-Phenotype (%).
System: HEK-293T
Test: Multiplex assay against HEK293T
Format: toxicity, cell-based
Conditions: human, 48 h, 1 µM, compound concentration 1 uM, replicate 1
The reply should be a number in %, with the unit left off.

Challenge: Could you tell me which Population Membrane Permeable-Phenotype (%) is on file for CC(C)(O)CNc1ncc(-c2ccnc(Nc3ccnc(Cl)c3)n2)c(CC2CC2)n1 ?
Response given: 3

Challenge: What do you have for CN1CCN(CCOc2cc(OC3CCOCC3)c3c(Nc4c(Cl)ccc5c4OCO5)ncnc3c2)CC1 ?
Response given: 2

Challenge: How about CN(C)C(=O)/C(C#N)=C/c1ccc(-c2nc3cnc4[nH]ccc4c3n2C2CCCCC2)o1 ?
Response given: 2

Challenge: And Cc1nc(-c2ccc(-c3ccc(C(=O)N4CCc5cc6c(cc54)C4(CCN(C)CC4)CO6)cc3)c(C)c2)no1 ?
Response given: 0

Challenge: Field entry: C=CC(=O)Nc1ccc2ncnc(Nc3ccc(OCc4cccc(F)c4)c(Cl)c3)c2c1.Cc1ccc(S(=O)(=O)O)cc1
Response given: 4

Challenge: Can you check Cc1[nH]c(/C=C2\C(=O)Nc3ccc(S(=O)(=O)N(C)c4cccc(Cl)c4)cc32)c(C)c1C(=O)N1CCN(C)CC1 next?
Response given: 2

Challenge: Now try COc1cccc([C@@H](C)NCCCc2ccccc2Cl)c1.Cl [TECALCET HYDROCHLORIDE] .
Response given: 2

Challenge: Moving on to COc1ncc(-c2ccc3nccc(-c4ccnnc4)c3c2)cc1NS(=O)(=O)c1ccc(F)cc1F
Response given: 0
